Would you kindly list %Inh for each of these molecules?
Tested on: PLK3;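 note: KINOMEscan kinase panel screen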
REPORTED CONDITIONS: concentration: 1 μM, replicates: in singlicate; n = 1
Please reply with the bare figure in % and do not write the unit itself.

Task item: Consider the molecule "COc1cc(Nc2nccc(N3CCC(NS(=O)(=O)c4ccc(NC(C)=O)cc4)CC3)n2)cc(OC)c1OC" and give its measured %Inh.
Reply: 29

Task item: Next molecule: "CS(=O)(=O)c1cccc(CNc2nc(Nc3ccc4c(c3)CCC(=O)N4)ncc2C(F)(F)F)c1"
Reply: 31

Task item: Next molecule: "CN(C)CCOc1ccc(-c2cc(-c3ccc(Cl)c(O)c3)c(-c3ccncc3)[nH]2)cc1.Cl.Cl"
Reply: 11

Task item: Next molecule: "CN(C)CCNS(=O)(=O)c1ccc(-c2ccnc3[nH]ccc23)cc1"
Reply: 0

Task item: Next molecule: "Nc1ncnc2scc(-c3ccc(NC(=O)Cc4cc(F)ccc4F)cc3)c12.O=C(O)C(F)(F)F"
Reply: 47

Task item: Next molecule: "Nc1cccc(-c2ccc3c(N)n[nH]c3c2)c1"
Reply: 0

Task item: Next molecule: "COC(=O)Nc1nc2ccc(Oc3ccc(NC(=O)Nc4cc(C(F)(F)F)ccc4F)cc3)cc2[nH]1.Cl"
Reply: 0

Task item: Next molecule: "CNc1nccc(-c2ccc3c(N)n[nH]c3c2)n1"
Reply: 0
